- assay remarks: blocks a specific stage of Vaccinia orthopoxvirus infection, primary screen, cell-based, single point (AID 1053133)
- measurement parameters: Vaccinia-infected cells, mCherry/Venus stage reporter fluorescence, stronger effect = lower value, concentration not given here; measured here: Venus reporter, other viral stage
In all, about 89,000 compounds went through this assay and about 10 (0.01%) were called active. About 10% were inconclusive and are not listed. The list is a sample of the results.
endpoint: activity change (Venus) (%)

[
  {
    "compound string": "COc1ccc2c3c([nH]c2c1)[C@@H](CO)N(C(=O)c1ccc(F)cc1)CC31CCN(C(=O)Nc2ccc(F)cc2)CC1",
    "recorded number": -2.47
  },
  {
    "compound string": "COCC(=O)N1CC2(CN(C(=O)c3cccnc3)C2)c2c([nH]c3cc(OC)ccc23)[C@H]1CO",
    "recorded number": -0.352
  },
  {
    "compound string": "CO[C@H]1CN(C)C(=O)c2ccc(NC(=O)C3CCOCC3)cc2OC[C@H](C)NC[C@H]1C",
    "recorded number": 1.25
  },
  {
    "compound string": "COCC#Cc1ccc([C@H]2[C@@H](CO)N3C(=O)CN(C(=O)C4CCCC4)C[C@@H]23)cc1",
    "recorded number": 10.7
  },
  {
    "compound string": "O=C(N[C@@H]1CC[C@H](CCn2cc(-c3ccccn3)nn2)O[C@@H]1CO)c1ccccc1",
    "recorded number": -0.983
  }
]
